Data origin: PubChem BioAssay AID1159580

# assay-info: chemical genetic growth profiling, strain panel (AID 1159580);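 also: tested at 20 µM; growth read once vehicle control cultures reached saturation at 30 °C; 1 = growth at the plate median or of vehicle wells; lower values mean less growth of the strain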
# cond: S. cerevisiae deletion strains, growth OD, locus YHR129C, strain ARP1, stronger effect = lower value
Screen size: about 5,500 compounds; about 2,000 (36%) were called active. Roughly 18% stayed inconclusive and do not appear here. Some of the results follow.
Threshold 1: normalized growth strictly smaller gives condition met, otherwise condition not met.

{"molecule": "C=CCCCCCCCCCCCC(O)CC(O)CO (stereo not drawn)", "category-label": "condition met"}
{"molecule": "COc1ccc(-c2cc(=O)c3c(OC)cccc3o2)cc1", "category-label": "condition not met"}
{"molecule": "CC1=CCc2c(cc3oc(C)cc(=O)c3c2O)OC1", "category-label": "condition met"}
{"molecule": "CC(C)=CCc1c2c(c(O)c3c(=O)c(O)c(-c4ccccc4)oc13)C=CC(C)(C)O2", "category-label": "condition met"}
{"molecule": "CC(C)Oc1ccc2c(=O)cc(-c3ccccc3)oc2c1", "category-label": "condition met"}
{"molecule": "COc1ccc(-c2cc(=O)c3ccccc3o2)cc1", "category-label": "condition met"}
{"molecule": "ClC(Cl)=C(c1ccc(Cl)cc1)c1ccc(Cl)cc1", "category-label": "condition met"}
{"molecule": "COc1ccc(-c2cc(=O)c3ccccc3o2)cc1OC", "category-label": "condition not met"}

* * *

# assay-info: chemical genetic growth profiling, strain panel (AID 1159580)
# cond: S. cerevisiae deletion strains, growth OD, locus YHR200W, strain rpn10, stronger effect = lower value
The whole screen tested about 5,500 compounds, of which about 2,000 (36%) were called active. Roughly 18% stayed inconclusive and do not appear here. This is one part of the list.
normalized growth overview

{"molecule": "C[N+]1(CCCCC[N+]2(C)CCCC2)CCCC1", "normalized growth": "1 (inactive)"}
{"molecule": "NC(=O)CC[C@@H](N)C(=O)O", "normalized growth": "1 (inactive)"}
{"molecule": "COc1cccc(-c2cc(=O)c3cc(OC)ccc3o2)c1", "normalized growth": "1.14 [resistant] (active)"}
{"molecule": "CCC1C2CC3C4N(C)c5ccccc5C45CC(C2C5OC(C)=O)N3C1OC(C)=O (stereo unspecified)", "normalized growth": "1.02 (inactive)"}
{"molecule": "CN1CCc2c(c3ccccc3n2Cc2ccccc2)C1", "normalized growth": "0.999 (inactive)"}
{"molecule": "COC(=O)C[C@H]1C(C)(C)C(=O)[C@@H]2CC3=C4CC(OC)O[C@@H](c5ccoc5)[C@]4(C)CCC3[C@@]1(C)C2=O (stereo partly specified)", "normalized growth": "0.997 (inactive)"}
{"molecule": "OC1C(O)C(O)C(O)C(O)C1O (stereo unspecified)", "normalized growth": "0.971 (inactive)"}
{"molecule": "CC(C)=CCc1c2c(c(O)c3c(=O)c(O)c(-c4ccccc4)oc13)C=CC(C)(C)O2", "normalized growth": "0.731 (active)"}
{"molecule": "CCN(CC)CCNc1ccc(CO)c2sc3ccccc3c(=O)c12", "normalized growth": "1.02 (inactive)"}
{"molecule": "COc1cccc(-c2cc(=O)c3ccc(OC)cc3o2)c1", "normalized growth": "1.04 (inactive)"}
{"molecule": "CC(=O)[C@H]1CCC2C3CC=C4C[C@@H](O)CC[C@]4(C)C3CC[C@@]21C (stereo partly specified)", "normalized growth": "0.965 (inactive)"}

* * *

# assay-info: chemical genetic growth profiling, strain panel (AID 1159580);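 also: tested at 20 µM; growth read once vehicle control cultures reached saturation at 30 °C; 1 = growth at the plate median or of vehicle wells; lower values mean less growth of the strain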
# cond: S. cerevisiae deletion strains, growth OD, locus YJL187C, strain SWE1 (second series), stronger effect = lower value
In all, about 5,500 compounds went through this assay and about 2,000 (36%) were called active. Another 18% or so got no clear call; they are omitted. Some of the results follow.

{"smiles-representation": "CC(C)(Oc1ccc(Cl)cc1)C(=O)O", "normalized growth": 0.973}
{"smiles-representation": "CC(C)[C@]12O[C@H]1[C@@H]1O[C@@]13[C@@]1(C)CCC4=C(COC4=O)[C@@H]1C[C@@H]1O[C@@]13C2=O", "normalized growth": 1.02}
{"smiles-representation": "CC(C)c1ccc2c(c1O)CC[C@H]1C3=C(CC[C@]21C)C(=O)OC3", "normalized growth": 0.86}
{"smiles-representation": "NC(=O)CC[C@@H](N)C(=O)O", "normalized growth": 1.03}
{"smiles-representation": "COc1ccc(-c2cc(=O)c3c(OC(C)=O)cc(OC(C)=O)cc3o2)cc1", "normalized growth": 0.927}

* * *

normalized growth overview
# assay-info: chemical genetic growth profiling, strain panel (AID 1159580);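 also: tested at 20 µM; growth read once vehicle control cultures reached saturation at 30 °C; 1 = growth at the plate median or of vehicle wells; lower values mean less growth of the strain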
# cond: S. cerevisiae deletion strains, growth OD, locus YBR279W, strain paf1, stronger effect = lower value
Hit rate of the full screen: of about 5,500 compounds, about 2,000 (36%) were called active. Not shown: some 18% with an inconclusive outcome. This is one part of the list.

{"compound": "CC(=O)CC(c1ccccc1)c1c(O)c2ccccc2oc1=O (centres undefined)", "normalized growth": 0.993}
{"compound": "CC(=O)Oc1cc(-c2coc3cc(OC(C)=O)c(OC(C)=O)c(OC(C)=O)c3c2=O)cc(OC(C)=O)c1OC(C)=O", "normalized growth": 0.937}
{"compound": "CN(N=O)C(=O)N[C@@H]1[C@@H](O)[C@H](O)[C@@H](CO)O[C@@H]1O", "normalized growth": 1.02}
{"compound": "COc1cc([C@@H]2c3cc4c(cc3[C@H](OC(C)=O)[C@H]3COC(=O)[C@H]23)OCO4)cc(OC)c1OC", "normalized growth": 0.976}
{"compound": "C[C@@H]1CC[C@@]2(OC1)OC1C(O)C3C4CC[C@H]5C[C@H](O[C@@H]6O[C@H](CO)[C@H](O[C@@H]7O[C@H](CO)[C@@H](O)[C@H](O[C@@H]8OC[C@@H](O)[C@H](O)[C@H]8O)[C@H]7O[C@@H]7O[C@H](CO)[C@H](O)[C@H](O[C@@H]8O[C@H](CO)[C@@H](O)[C@H](O)[C@H]8O)[C@H]7O)[C@H](O)[C@H]6O)[C@H](O)C[C@]5(C)C4CC[C@]3(C)C1[C@@H]2C (some centres undefined)", "normalized growth": 1.02}
{"compound": "COc1cc2cc[n+]3cc4c(OC)c(OC)ccc4cc3c2cc1OC", "normalized growth": 0.982}
{"compound": "CC(=O)Oc1c(-c2ccccc2)oc2c(CC=C(C)C)c3c(c(OC(C)=O)c2c1=O)C=CC(C)(C)O3", "normalized growth": 0.995}
{"compound": "C=CCCCCCCCCCCCC(O)CC(O)CO (centres undefined)", "normalized growth": 0.981}
{"compound": "Nc1nc(N)c2nc(-c3ccccc3)c(N)nc2n1", "normalized growth": 0.994}
{"compound": "CC(C)=CCc1c2c(c(O)c3c(=O)c(O)c(-c4ccccc4)oc13)C=CC(C)(C)O2", "normalized growth": 0.988}
{"compound": "CC(=O)Oc1ccc(-c2cc(=O)c3c(OC(C)=O)cc(OC(C)=O)cc3o2)cc1", "normalized growth": 0.974}
{"compound": "O=c1c2ccccc2oc2ccccc12", "normalized growth": 0.922}
{"compound": "O=c1c(-c2cc(O)c(O)c(O)c2)coc2cc(O)c(O)c(O)c12", "normalized growth": 0.97}
{"compound": "CC(C)Oc1ccc2c(=O)cc(-c3ccccc3)oc2c1", "normalized growth": 0.963}
{"compound": "COc1cc2c(cc1OC)-c1cc3ccc(OC)c(OC)c3c[n+]1CC2", "normalized growth": 0.979}
{"compound": "C[n+]1cc2c3c(ccc2c2ccc4cc5c(cc4c21)OCO5)OCO3", "normalized growth": 0.674}
{"compound": "COc1ccc(-c2cc(=O)c3ccccc3o2)cc1", "normalized growth": 0.881}
{"compound": "O=C(O)c1cc(=O)c2ccccc2o1", "normalized growth": 0.981}
{"compound": "NS(=O)(=O)c1cc2c(cc1C(F)(F)F)NCNS2(=O)=O", "normalized growth": 0.992}

* * *

# assay-info: chemical genetic growth profiling, strain panel (AID 1159580);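 also: tested at 20 µM; growth read once vehicle control cultures reached saturation at 30 °C; 1 = growth at the plate median or of vehicle wells; lower values mean less growth of the strain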
# cond: S. cerevisiae deletion strains, growth OD, locus YGL248W, strain PDE1
Hit rate of the full screen: of about 5,500 compounds, about 2,000 (36%) were called active. Roughly 18% stayed inconclusive and do not appear here. Cut-off read from the data, not from the text of the source: active = normalized growth mostly below about 0.91 (no sharp cut-off); inconclusive = no clear call, values can overlap the other calls; inactive = mostly above about 0.92. The list shows a part of the results.
Labels: YES (active), NO (inactive)

{"compound": "O=c1c(-c2ccccc2)coc2cc(O)cc(O)c12", "category-label": "YES"}
{"compound": "C=CCCCCCCCCCCCC(O)CC(O)CO (stereo not drawn) (tested in a mixture with another compound)", "category-label": "YES"}
{"compound": "NC(=O)CC[C@@H](N)C(=O)O", "category-label": "NO"}
{"compound": "O=c1[nH]c2cc(Cl)c(Cl)cc2[nH]c1=O", "category-label": "NO"}
{"compound": "CC(=O)O.CC(=O)O.[Cd]", "category-label": "YES"}
{"compound": "COc1cccc(-c2cc(=O)c3ccc(OC)cc3o2)c1", "category-label": "NO"}
{"compound": "COc1ccc(-c2cc(=O)c3c(OC(C)=O)cc(OC(C)=O)cc3o2)cc1", "category-label": "NO"}
{"compound": "CN1CCN2c3ccccc3Cc3ccccc3C2C1 (stereo not drawn)", "category-label": "NO"}
{"compound": "COc1ccc(-c2coc3cc(O)cc(O)c3c2=O)cc1", "category-label": "YES"}
{"compound": "COc1cccc(-c2cc(=O)c3cc(OC)ccc3o2)c1", "category-label": "NO"}
{"compound": "C=CCc1ccccc1OCC(O)CNC(C)C (stereo not drawn)", "category-label": "NO"}
{"compound": "CC1(C)O[C@@H]2CC3C4C[C@H](F)C5=CC(=O)C=CC5(C)C4C(O)CC3(C)[C@]2(C(=O)CO)O1 (stereo partly drawn)", "category-label": "NO"}
{"compound": "COC(=O)C[C@H]1C(C)(C)C(=O)[C@@H]2CC3=C4CC(OC)O[C@@H](c5ccoc5)[C@]4(C)CCC3[C@@]1(C)C2=O (stereo partly drawn)", "category-label": "NO"}
{"compound": "NCCc1ccc(O)cc1", "category-label": "NO"}
{"compound": "CCC(CCC(C)[C@H]1CCC2C3CC=C4C[C@@H](O)CC[C@]4(C)C3CC[C@@]21C)C(C)C (stereo partly drawn)", "category-label": "NO"}
{"compound": "COc1ccc(-c2coc3cc(OC)cc(O)c3c2=O)cc1", "category-label": "NO"}
{"compound": "Cn1c(=O)c2[nH]c(C3CCCC3)nc2n(C)c1=O", "category-label": "NO"}
{"compound": "Cc1coc2ccccc2c1=O", "category-label": "NO"}
{"compound": "COc1cc2cc[n+]3cc4c(OC)c(OC)ccc4cc3c2cc1OC", "category-label": "NO"}
{"compound": "CC(=O)O[C@H]1C[C@@]2(C)[C@H](c3ccoc3)OC(=O)[C@H]3O[C@]32[C@@]2(C)C1[C@]1(C)C(C[C@H]2OC(C)=O)C(C)(C)[C@H](OC(C)=O)C[C@@H]1OC(C)=O (stereo partly drawn)", "category-label": "NO"}
{"compound": "CC(N)Cc1ccc(O)cc1 (stereo not drawn)", "category-label": "NO"}
{"compound": "Cc1cc2cc3c(C)cc(=O)oc3c(C)c2o1", "category-label": "NO"}
{"compound": "COc1ccc2c(=O)cc(-c3ccccc3OC)oc2c1", "category-label": "YES"}
{"compound": "CCC1C2CC3C4N(C)c5ccccc5C45CC(C2C5OC(C)=O)N3C1OC(C)=O (stereo not drawn)", "category-label": "NO"}
{"compound": "CCC/C=C/C=C/[C@@H]1C[C@@H](O)[C@@H](O)C(=O)[C@H]1C=O", "category-label": "NO"}
{"compound": "O=c1oc2ccccc2c(O)c1Cc1c(O)c2ccccc2oc1=O", "category-label": "NO"}
{"compound": "COc1cc(O)c2c(=O)c(-c3ccc(O)cc3)coc2c1", "category-label": "YES"}
{"compound": "CC(=O)O[C@@H]1CC2C(C)(C)CCC(=O)[C@]2(C)C2CC[C@@]3(C)[C@H](c4ccoc4)OC(=O)C4OC43[C@@]21C (stereo partly drawn)", "category-label": "NO"}
{"compound": "COc1ccc2cc3[n+](cc2c1OC)CCc1cc2c(cc1-3)OCO2", "category-label": "YES"}
{"compound": "C#CCOS(=O)OC1CCCCC1Oc1ccc(C(C)(C)C)cc1 (stereo not drawn)", "category-label": "NO"}
{"compound": "ClC(Cl)=C(c1ccc(Cl)cc1)c1ccc(Cl)cc1", "category-label": "NO"}
{"compound": "CC(C)(Oc1ccc(Cl)cc1)C(=O)O", "category-label": "NO"}
{"compound": "O=c1c(-c2cc(O)c(O)c(O)c2)coc2cc(O)c(O)c(O)c12", "category-label": "YES"}
{"compound": "CC(=O)O[C@@H]1CC2C(C)(C)C(=O)CC[C@]2(C)C2CC[C@@]3(C)[C@H](c4ccoc4)OC(=O)C4OC43[C@@]21C (stereo partly drawn)", "category-label": "NO"}
{"compound": "CC(=O)Oc1c(-c2ccccc2)oc2c(CC=C(C)C)c3c(c(OC(C)=O)c2c1=O)C=CC(C)(C)O3", "category-label": "YES"}
{"compound": "CCCN1C[C@H](CSC)C[C@@H]2c3cccc4[nH]cc(c34)C[C@H]21", "category-label": "NO"}
{"compound": "CC1(C)O[C@@H]2CC3C4C[C@H](F)C5=CC(=O)C=C[C@]5(C)[C@@]4(F)[C@@H](O)C[C@]3(C)[C@]2(C(=O)CO)O1 (stereo partly drawn)", "category-label": "NO"}
{"compound": "O=C(O)c1nc2cc(Cl)c(Cl)cc2[nH]c1=O", "category-label": "NO"}
{"compound": "CCCCCCCCCc1ccc(O)cc1", "category-label": "YES"}
{"compound": "CCN(CCCCOC(=O)c1ccc(OC)c(OC)c1)C(C)Cc1ccc(OC)cc1 (stereo not drawn)", "category-label": "NO"}
{"compound": "CC(=O)Oc1cc(-c2coc3cc(OC(C)=O)c(OC(C)=O)c(OC(C)=O)c3c2=O)cc(OC(C)=O)c1OC(C)=O", "category-label": "YES"}
{"compound": "CN(C)CC/C=C1/c2ccccc2COc2ccccc21", "category-label": "NO"}
{"compound": "CCN(CC)CCNc1ccc(CO)c2sc3ccccc3c(=O)c12", "category-label": "NO"}
